test system: PPARg:RXRa 30nM:10nM, anti-RXR (NR concentration 30 nM, RXRa partner concentration 10 nM); experiment: PBM binding z-score (relative to random genomic background probes); higher = stronger binding; sequences stand for … in GC…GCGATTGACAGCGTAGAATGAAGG
Record Yes whenever PBM binding z-score is at 1 or higher; record No when lower.

>>> class_label("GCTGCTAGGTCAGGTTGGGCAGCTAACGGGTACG")
"No"
>>> class_label("TCTTGTAGATCAGCAGGAGGTTAAGAAAGATCGA")
"Yes"
>>> class_label("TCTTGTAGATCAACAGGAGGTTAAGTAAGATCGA")
"Yes"
>>> class_label("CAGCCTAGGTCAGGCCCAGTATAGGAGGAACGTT")
"No"
>>> class_label("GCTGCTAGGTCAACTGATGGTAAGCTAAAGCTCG")
"No"
>>> class_label("GCTAGCAGGCCATTTGGGTCACTTAATGACGGGC")
"No"
>>> class_label("CCGACTGGGCCAAAGGTTACCATACTCAGTACGA")
"Yes"
>>> class_label("CTTACTGGGCCAAGGTCATTGATCAGTCAAAGCA")
"Yes"
>>> class_label("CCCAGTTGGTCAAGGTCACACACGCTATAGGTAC")
"Yes"
>>> class_label("CCTCCAAGGTCAAAGGTCAGTGAAGAGATGACGG")
"Yes"
>>> class_label("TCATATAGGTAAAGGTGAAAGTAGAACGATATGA")
"Yes"
>>> class_label("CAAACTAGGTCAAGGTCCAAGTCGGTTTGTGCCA")
"Yes"

---

test system: LXRb:RXRa (NR concentration 270 nM, RXRa partner concentration 90 nM); assay: PBM binding z-score (relative to random genomic background probes); higher = stronger binding; sequences stand for … in GC…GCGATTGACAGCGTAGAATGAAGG
Reported PBM binding z-score values follow for various sequences
readout_type: PBM binding z-score

>>> quantitative_readout("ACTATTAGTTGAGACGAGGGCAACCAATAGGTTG")
0.143
>>> quantitative_readout("GGAACGAGGGCATACGAGTTGATAGCATGGCGAT")
-0.0696
>>> quantitative_readout("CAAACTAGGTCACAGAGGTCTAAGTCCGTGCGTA")
2.13
>>> quantitative_readout("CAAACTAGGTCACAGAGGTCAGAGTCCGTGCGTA")
4.72
>>> quantitative_readout("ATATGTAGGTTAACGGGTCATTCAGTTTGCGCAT")
3.05
>>> quantitative_readout("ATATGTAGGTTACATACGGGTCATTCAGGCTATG")
2.83
>>> quantitative_readout("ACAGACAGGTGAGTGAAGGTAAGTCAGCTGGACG")
-0.528
>>> quantitative_readout("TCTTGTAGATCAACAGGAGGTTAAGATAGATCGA")
0.87
>>> quantitative_readout("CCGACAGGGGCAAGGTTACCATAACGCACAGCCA")
0.737
>>> quantitative_readout("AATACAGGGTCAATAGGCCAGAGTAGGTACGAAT")
3.72
>>> quantitative_readout("ATCTCTAGGTAAGACTTAGTTCAGTGAAGAACGC")
0.303
>>> quantitative_readout("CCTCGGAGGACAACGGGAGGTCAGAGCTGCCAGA")
1.52
>>> quantitative_readout("AGTCACAGTTCACTAGGTAACGTAAGATTCAGCT")
1.19
>>> quantitative_readout("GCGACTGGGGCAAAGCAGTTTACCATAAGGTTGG")
-0.071
>>> quantitative_readout("CGTCCAAGGTCAATCCTAGGTCAGTGAAAGCATT")
4.8
>>> quantitative_readout("ATCTCTAGGTAACATGTTCAGTGAAAGAGAGGAC")
0.402
>>> quantitative_readout("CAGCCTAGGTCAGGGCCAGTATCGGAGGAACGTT")
0.354
>>> quantitative_readout("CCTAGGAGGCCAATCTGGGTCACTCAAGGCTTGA")
1.35
>>> quantitative_readout("ACTATTAGTTGACTTAGGGCTACCGATACGACGC")
-0.352
>>> quantitative_readout("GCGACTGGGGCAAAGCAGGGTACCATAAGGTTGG")
-0.249
>>> quantitative_readout("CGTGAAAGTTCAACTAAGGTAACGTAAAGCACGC")
3.89
>>> quantitative_readout("GTACCAAGGTCAATAGGTCGTTGATGAGTAGGCG")
3.74
>>> quantitative_readout("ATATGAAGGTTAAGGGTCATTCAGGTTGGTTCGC")
4.85
>>> quantitative_readout("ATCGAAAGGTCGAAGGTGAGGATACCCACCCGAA")
2.73
>>> quantitative_readout("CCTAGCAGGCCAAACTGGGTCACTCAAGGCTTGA")
1.07
>>> quantitative_readout("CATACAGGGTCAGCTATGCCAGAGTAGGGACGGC")
1.98

---

# key: entry, value: PBM binding z-score
test system: RARb:RXRa (NR concentration 270 nM, RXRa partner concentration 90 nM); experiment: PBM binding z-score (relative to random genomic background probes); higher = stronger binding; sequences stand for … in GC…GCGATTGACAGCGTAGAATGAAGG
readout_type: PBM binding z-score

>>> quantitative_readout("GGAACGAGGGCATTCGAGTTGCTAGCATGGCGAT")
1.8
>>> quantitative_readout("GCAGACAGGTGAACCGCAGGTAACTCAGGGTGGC")
0.901
>>> quantitative_readout("AGAATGAGGTTATTACGATCAGGGAATTGCGGTC")
1.42
>>> quantitative_readout("GGAACGAGGGCATTCGAGTTGAGAGCATGGCGAT")
1.99
>>> quantitative_readout("AAGACAGGGTCATCGTAGGCCAGAGTACGCACAG")
4.23
>>> quantitative_readout("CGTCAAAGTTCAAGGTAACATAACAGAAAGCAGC")
5.13
>>> quantitative_readout("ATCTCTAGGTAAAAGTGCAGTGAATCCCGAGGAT")
0.518
>>> quantitative_readout("CCTACTGGGCCATTCAGAGGTCAGTGATCATATG")
2.77
>>> quantitative_readout("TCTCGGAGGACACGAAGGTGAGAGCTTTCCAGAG")
1.69

---

system: PPARg:RXRa 90nM:30nM, anti-RXR (NR concentration 90 nM, RXRa partner concentration 30 nM); assay: PBM binding z-score (relative to random genomic background probes); higher = stronger binding; sequences stand for … in GC…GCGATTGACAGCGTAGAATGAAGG
readout_type: PBM binding z-score

>>> quantitative_readout("TAGCGTAGGTCATTCAGGGGCCAGTATAGAAAGC")
1.6
>>> quantitative_readout("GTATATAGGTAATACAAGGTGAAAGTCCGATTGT")
1.94
>>> quantitative_readout("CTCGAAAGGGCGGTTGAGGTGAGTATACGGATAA")
-0.301
>>> quantitative_readout("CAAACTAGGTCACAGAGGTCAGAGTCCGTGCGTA")
7.84
>>> quantitative_readout("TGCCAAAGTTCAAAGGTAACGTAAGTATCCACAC")
6.78
>>> quantitative_readout("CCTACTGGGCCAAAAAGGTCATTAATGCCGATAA")
2.96
>>> quantitative_readout("CCTAGTTGGTCAGGAGGTCATACACCGGATATGA")
2.89
>>> quantitative_readout("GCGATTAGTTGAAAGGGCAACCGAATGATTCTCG")
2.72
>>> quantitative_readout("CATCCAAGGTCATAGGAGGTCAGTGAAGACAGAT")
4.93
>>> quantitative_readout("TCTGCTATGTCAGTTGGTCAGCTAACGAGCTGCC")
0.78
>>> quantitative_readout("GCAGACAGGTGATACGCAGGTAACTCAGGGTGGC")
-0.762
>>> quantitative_readout("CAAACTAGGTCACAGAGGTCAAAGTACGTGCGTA")
8.5

---

system: PPARg DBDmut IVT, anti-PPARg (DBD mutation: PPARg1 K132A/R137A, NR concentration 270 nM); assay: PBM binding z-score (relative to random genomic background probes); higher = stronger binding; sequences stand for … in GC…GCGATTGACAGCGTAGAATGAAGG
readout_type: PBM binding z-score

>>> quantitative_readout("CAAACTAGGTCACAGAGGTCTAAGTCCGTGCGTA")
1.67
>>> quantitative_readout("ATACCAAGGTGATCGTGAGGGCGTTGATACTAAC")
1.25
>>> quantitative_readout("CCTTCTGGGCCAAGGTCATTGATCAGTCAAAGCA")
-0.969
>>> quantitative_readout("CCTACTGGGCCACGATAGGTCATTGATTCAGTGA")
-0.512
>>> quantitative_readout("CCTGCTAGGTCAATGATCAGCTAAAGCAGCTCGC")
-0.701
>>> quantitative_readout("ATCTCTAGGTATAAGTTCAGTGAATCCCGAGGAT")
1.22
>>> quantitative_readout("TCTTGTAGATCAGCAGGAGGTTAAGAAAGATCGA")
0.0884
>>> quantitative_readout("ACAGACAGGTGATGAAGGTAACTTAGGCTATCAT")
0.165
>>> quantitative_readout("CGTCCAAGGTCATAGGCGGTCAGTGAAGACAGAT")
0.332
>>> quantitative_readout("AGAATGAGGTTATACGTAAATCAGGGAAGAAAGT")
1.57
>>> quantitative_readout("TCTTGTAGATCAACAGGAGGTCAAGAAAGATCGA")
0.144
>>> quantitative_readout("ATCGAAAGGTCGAGGTGAGAATAGAGAAAGGGAA")
0.93
